Biological target: hDGAT1 (Homo sapiens)
Construct: made in house; host or cells: Sf9 insect cells (baculovirus); microsomal fraction
Sequence (O75907 1-488): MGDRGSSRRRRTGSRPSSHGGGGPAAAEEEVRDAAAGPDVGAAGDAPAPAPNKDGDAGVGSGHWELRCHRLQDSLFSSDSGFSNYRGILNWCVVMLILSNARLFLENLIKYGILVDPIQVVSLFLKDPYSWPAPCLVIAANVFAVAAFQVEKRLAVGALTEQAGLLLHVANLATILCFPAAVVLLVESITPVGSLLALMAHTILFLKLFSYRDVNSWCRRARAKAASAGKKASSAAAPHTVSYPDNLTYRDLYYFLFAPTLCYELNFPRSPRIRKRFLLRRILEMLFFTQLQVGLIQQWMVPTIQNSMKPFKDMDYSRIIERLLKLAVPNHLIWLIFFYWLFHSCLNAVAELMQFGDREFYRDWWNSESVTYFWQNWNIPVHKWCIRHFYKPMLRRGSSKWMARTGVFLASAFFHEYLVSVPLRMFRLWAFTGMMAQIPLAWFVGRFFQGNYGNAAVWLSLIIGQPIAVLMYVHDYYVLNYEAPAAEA
Experiment: In-vitro DGAT1 assay with hDGAT1 microsomes from Sf9 cells (14C oleoyl CoA, scintillation counting)
Assay type: biochemical
Settings: read-out: Percentage inhibition of hDGAT1
metricName: inhibition at 1 µM

Query block: Which inhibition at 1 µM is reported for this molecule? O=C(Nc1ccccc1)Nc1ccc(-c2cnc(C3CCC(C(=O)O)CC3)o2)cc1 (stereo not shown) [Example 206]
Result block: 20 to 50%

Query block: // inhibition at 1 µM lookup, key: O=C(Nc1ccccc1)Nc1ccc(-c2cnc(CCNS(=O)(=O)C(F)(F)F)s2)cc1 [Example 527]
Result block: > 50%

Query block: Bench note: what inhibition at 1 µM did CC(C)(Cc1ncc(-c2ccc(NC(=O)Nc3ccc(Cl)cc3Oc3ccccc3)cc2)s1)C(=O)O [Example 40] show?
Result block: > 50%

Query block: Quick one: inhibition at 1 µM of O=S(=O)(Nc1ccc(-c2cnc(CNS(=O)(=O)C(F)(F)F)s2)cc1)c1ccccc1 [Example 553] ?
Result block: 20 to 50%

Query block: Look at this molecule and give its reported inhibition at 1 µM. Cc1noc(CC2CCC(c3ncc(-c4ccc(NC(=O)c5c(F)cccc5F)cc4)s3)CC2)n1 (stereo not shown) [Example 396]
Result block: 20 to 50%

###

target: hDGAT1 (Homo sapiens); construct: made in house; host or cells: Sf9 insect cells (baculovirus); microsomal fraction; assay: In-vitro DGAT1 assay with hDGAT1 microsomes from Sf9 cells (14C oleoyl CoA, scintillation counting); assay type: biochemical; details: at 1 μM
metricName: Percentage inhibition of hDGAT1

Reference set, count: 6
>>> experimentalvalue("CC(C)(Cc1ncc(-c2ccc(NC(=O)c3ccc(-c4ccccc4)cc3)cc2)s1)C(=O)O")
"+ (20-50% Inhibition)"
>>> experimentalvalue("CC(C)(CCc1ncc(-c2ccc(NC(=O)Nc3cc(F)cc(F)c3)cc2)s1)C(=O)[O-].[Na+] [Example 235A]")
"++ (>50 % Inhibition)"
>>> experimentalvalue("CC(C)(CCc1ncc(-c2ccc(NC(=O)Nc3cc(F)c(F)cc3F)cc2)s1)C(=O)[O-].[Na+] [Example 237A]")
"++ (>50 % Inhibition)"
>>> experimentalvalue("CC(C)(Cc1ncc(-c2ccc(NC(=O)c3ccc(-c4ccccc4)cc3)cc2)o1)C(=O)O")
"+ (20-50% Inhibition)"
>>> experimentalvalue("O=C(Nc1ccc(-c2cnc(CNS(=O)(=O)C(F)(F)F)s2)cc1)Nc1ccccc1Cl")
"++ (>50 % Inhibition)"
>>> experimentalvalue("O=C(Nc1ccc(-c2cnc(CCNS(=O)(=O)C(F)(F)F)s2)cc1)Nc1ccc(C(F)(F)F)cc1")
"++ (>50 % Inhibition)"

Now take the following compound into account.
Query block: If you can, please state the reported Percentage inhibition of hDGAT1 value of O=C(O)CC1CCC(c2ncc(-c3ccc(NC(=O)c4nc(-c5ccccc5)oc4C(F)(F)F)cc3)s2)CC1 (stereo not drawn) .
Result block: ++ (>50 % Inhibition)

###

Target: hDGAT1 (Homo sapiens, UniProt O75907)
Construct: made in house; host or cells: Sf9 insect cells (baculovirus); microsomal fraction
Assay: In-vitro DGAT1 assay with hDGAT1 microsomes from Sf9 cells (14C oleoyl CoA, scintillation counting)
Format: biochemical
Conditions: at 1 μM
Procedure: Sf9 cells were grown in T25 flasks containing Graces's Insect media with 10% FBS with antibiotic (100 units/mL penicillin, 100 μg/mL streptomycin sulphate, 0.25 μg/mL Amptotericin B as Fungizone) grown in a 27° C. incubator. hDGAT10RF expression clone (RZPDo839C09146 in pDEST vector) was obtained from RZPD, German Science Center for Genomes research, Germany. hDGAT1 bacmid DNA was obtained by transformation of the hDGAT1 expression clone into DH10Bac E. coli competent cells. […]
metricName: Percentage inhibition of hDGAT1

Sample answers from the record:
>>> experimentalvalue("COC(=O)C(C)(C)CCc1ncc(-c2ccc(NC(=O)Nc3ccc(F)cc3)cc2)s1 [Example 96]")
"++ (>50 % Inhibition)"
>>> experimentalvalue("Cc1ccc(NC(=O)Nc2ccc(-c3noc([C@H]4CC[C@H](C(=O)O)CC4)n3)cc2)cc1 [Example 223]")
"+ (20-50% Inhibition)"
>>> experimentalvalue("O=C(Nc1ccc(-c2cnc(CNS(=O)(=O)C(F)(F)F)s2)cc1)NC1CCCCC1 [Example 548]")
"++ (>50 % Inhibition)"
>>> experimentalvalue("O=C(O)CCCc1ncc(-c2ccc(NC(=O)c3ccc(-c4ccccc4)cc3)cc2)s1 [Example 61]")
"++ (>50 % Inhibition)"
>>> experimentalvalue("O=C(Nc1ccc(-c2noc([C@H]3CC[C@H](C(=O)O)CC3)n2)cc1)Nc1cccc(Cl)c1 [Example 225]")
"++ (>50 % Inhibition)"
>>> experimentalvalue("CC(=O)NC(=O)CC1CCC(c2ncc(-c3ccc(NC(=O)c4c(F)cccc4F)cc3)s2)CC1 (centres unmarked) [Example 403]")
"+ (20-50% Inhibition)"

Query block: # query: Percentage inhibition of hDGAT1 of entry O=C(Nc1ccc(-c2noc([C@H]3CC[C@H](C(=O)O)CC3)n2)cc1)c1ccc(-c2ccccc2)cc1 [Example 231]
Result block: + (20-50% Inhibition)

Query block: Could you share which Percentage inhibition of hDGAT1 value was measured for O=C(Nc1ccc(-c2cnc(CNS(=O)(=O)C(F)(F)F)s2)cc1)c1ccccc1Cl [Example 551] ?
Result block: + (20-50% Inhibition)

###

Entries and their measured inhibition at 1 µM follow.
molecular target: hDGAT1 (Homo sapiens, UniProt O75907); construct: made in house; host or cells: Sf9 insect cells (baculovirus); microsomal fraction; assay: In-vitro DGAT1 assay with hDGAT1 microsomes from Sf9 cells (14C oleoyl CoA, scintillation counting); assay type: biochemical; settings: read-out: Percentage inhibition of hDGAT1

Query block: Which measured inhibition at 1 µM belongs to CS(=O)(=O)N1CCC(c2ncc(-c3ccc(NC(=O)Nc4ccccc4F)cc3)s2)CC1 [Example 491] , tested on hDGAT1 (Homo sapiens, UniProt O75907)?
Result block: 20 to 50%

Query block: I'm curious: which inhibition at 1 µM was measured for COCCNC(=O)Nc1ccc(-c2cnc(CCC(C)(C)C(=O)O)s2)cc1 [Example 249] tested on hDGAT1 (Homo sapiens, UniProt O75907)?
Result block: 20 to 50%

Query block: Please provide the recorded inhibition at 1 µM for CS(=O)(=O)N1CCC(c2ncc(-c3ccc(NC(=O)Nc4ccccc4Cl)cc3)s2)CC1 [Example 490] , tested on hDGAT1 (Homo sapiens, UniProt O75907).
Result block: 20 to 50%

Query block: Kindly state the measured inhibition at 1 µM obtained for Cc1nnc(CC2CCC(c3ncc(-c4ccc(NC(=O)Nc5cc(F)c(F)cc5F)cc4)s3)CC2)o1 (stereo not shown) [Example 382] with hDGAT1 (Homo sapiens, UniProt O75907).
Result block: > 50%

###

Quick list: inhibition at 1 µM per entry.
Target: hDGAT1 (Homo sapiens, UniProt O75907)
Construct: made in house; host or cells: Sf9 insect cells (baculovirus); microsomal fraction
Sequence (O75907 1-488): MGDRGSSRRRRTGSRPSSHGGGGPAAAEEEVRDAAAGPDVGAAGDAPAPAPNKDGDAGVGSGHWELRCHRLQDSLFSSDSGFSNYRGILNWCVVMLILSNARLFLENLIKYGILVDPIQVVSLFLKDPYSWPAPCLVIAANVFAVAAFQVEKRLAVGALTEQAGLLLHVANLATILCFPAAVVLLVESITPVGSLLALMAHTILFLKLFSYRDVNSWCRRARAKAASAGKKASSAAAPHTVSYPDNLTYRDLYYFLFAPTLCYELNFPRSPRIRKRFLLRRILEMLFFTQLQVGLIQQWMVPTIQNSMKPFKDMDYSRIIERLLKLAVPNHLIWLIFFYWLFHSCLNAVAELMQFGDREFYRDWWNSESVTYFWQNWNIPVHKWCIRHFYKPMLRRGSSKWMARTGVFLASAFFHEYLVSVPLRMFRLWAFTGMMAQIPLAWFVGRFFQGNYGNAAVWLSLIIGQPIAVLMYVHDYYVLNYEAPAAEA
Assay: In-vitro DGAT1 assay with hDGAT1 microsomes from Sf9 cells (14C oleoyl CoA, scintillation counting)
Assay type: biochemical
Conditions: read-out: Percentage inhibition of hDGAT1
Counter-ions that a name gives are not always drawn.

Here is how some compounds turned out for inhibition at 1 µM.
>>> experimentalvalue("O=C(Nc1ccc(-c2cnc(C3CCC(C(=O)O)CC3)s2)cc1)Nc1ccccc1F (stereo not shown)")
"> 50%"
>>> experimentalvalue("O=C(Nc1ccc(-c2cnc(C3CCN(S(=O)(=O)C(F)(F)F)CC3)s2)cc1)Nc1ccccc1Cl")
"20 to 50%"
>>> experimentalvalue("O=C(O)CCCc1nnc(-c2ccc(NC(=O)Nc3cccc(C(F)(F)F)c3)cc2)s1")
"> 50%"

Okay, now this compound:
Query block: Please provide the recorded inhibition at 1 µM for CN1CCN(C(=O)Nc2ccc(-c3cnc(CCC(C)(C)C(=O)O)s3)cc2)CC1 [Example 243, hydrochloride] , tested on hDGAT1 (Homo sapiens, UniProt O75907).
Result block: 20 to 50%
